Target: Nonstructural protein 5A (Hepatitis C virus) (UniProt Q5L478)
Sequence (Q5L478 as listed by the source): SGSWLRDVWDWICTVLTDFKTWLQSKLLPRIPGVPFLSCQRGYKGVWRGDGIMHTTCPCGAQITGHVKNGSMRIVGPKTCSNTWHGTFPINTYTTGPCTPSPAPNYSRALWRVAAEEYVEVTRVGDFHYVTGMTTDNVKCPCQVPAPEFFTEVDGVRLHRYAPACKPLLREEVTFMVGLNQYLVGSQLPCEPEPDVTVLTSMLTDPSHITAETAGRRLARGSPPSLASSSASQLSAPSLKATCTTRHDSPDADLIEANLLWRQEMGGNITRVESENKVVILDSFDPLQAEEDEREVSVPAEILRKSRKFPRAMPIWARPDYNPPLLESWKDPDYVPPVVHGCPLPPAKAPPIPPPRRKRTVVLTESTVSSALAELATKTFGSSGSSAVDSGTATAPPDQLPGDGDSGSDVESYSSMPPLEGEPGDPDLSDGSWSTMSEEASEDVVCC
Assay: Inhibition of HCV GT4a NS5A assessed as suppression of replicon RNA level by real-time PCR analysis
Details: Hepatitis C virus subtype 4a
Property: log10(EC90); scope: individual molecules
MEASURED QUANTITY: log10(EC90) (log10 of the value in nM)

MOLECULE: COC(=O)N[C@H](C(=O)N1CCC[C@H]1c1ncc(-c2ccc3c(c2)cc2n3[C@H](c3ccccc3)Oc3c-2ccc(-c2cnc([C@@H]4CCCN4C(=O)[C@@H](NC(=O)OC)C(C)C)[nH]2)c3F)[nH]1)C(C)C
TEST VALUE: 0.00
--
MOLECULE: COC(=O)N[C@H](C(=O)N1C[C@H](F)C[C@H]1c1ncc(-c2cc(F)c3c(c2)OC(c2ccccc2)n2c-3cc3cc(-c4cnc([C@@H]5C[C@@H](F)CN5C(=O)[C@@H](NC(=O)OC)C(C)C)[nH]4)ccc32)[nH]1)C(C)C (mixture of isomers)
TEST VALUE: -1.00
--
MOLECULE: COC(=O)N[C@H](C(=O)N1CCC[C@H]1c1ncc(-c2ccc3c(c2)cc2n3C(c3ccccc3)Oc3cc(-c4cnc([C@@H]5C[C@@H](F)CN5C(=O)[C@@H](NC(=O)OC)C(C)C)[nH]4)cc(F)c3-2)[nH]1)C(C)C (mixture of isomers)
TEST VALUE: -1.15
--
MOLECULE: COC(=O)N[C@H](C(=O)N1CCC[C@H]1c1ncc(-c2cc(F)c3c(c2)O[C@@H](c2ccccc2)n2c-3cc3cc(-c4cnc([C@@H]5CCCN5C(=O)[C@@H](NC(=O)OC)C(C)C)[nH]4)ccc32)[nH]1)C(C)C
TEST VALUE: -1.40
--
MOLECULE: COC(=O)N[C@H](C(=O)N1CCC[C@H]1c1ncc(-c2ccc3c(c2)cc2n3[C@H](c3ccccc3)Oc3cc(-c4cnc([C@@H]5CCCN5C(=O)[C@@H](NC(=O)OC)C(C)C)[nH]4)c(F)cc3-2)[nH]1)C(C)C
TEST VALUE: -1.70
--
MOLECULE: COC(=O)N[C@H](C(=O)N1C[C@H](F)C[C@H]1c1ncc(-c2ccc3c(c2)OC(c2ccccc2)n2c-3c(F)c3cc(-c4cnc([C@@H]5C[C@@H](F)CN5C(=O)[C@@H](NC(=O)OC)C(C)C)[nH]4)ccc32)[nH]1)C(C)C (mixture of isomers)
TEST VALUE: -0.52
--
MOLECULE: COC(=O)N[C@H](C(=O)N1CCC[C@H]1c1ncc(-c2ccc3c(c2)O[C@@H](c2ccccc2)n2c-3c(F)c3cc(-c4cnc([C@@H]5CCCN5C(=O)[C@@H](NC(=O)OC)C(C)C)[nH]4)ccc32)[nH]1)C(C)C
TEST VALUE: -1.22
--
MOLECULE: COC(=O)N[C@H](C(=O)N1CCC[C@H]1c1ncc(-c2ccc3c(c2)OCn2c-3cc3cc(-c4cnc([C@@H]5CCCN5C(=O)[C@@H](NC(=O)OC)C(C)C)[nH]4)cc(F)c32)[nH]1)C(C)C
TEST VALUE: -0.70
--
MOLECULE: COC(=O)N[C@H](C(=O)N1CCC[C@H]1c1ncc(-c2cc(F)c3c(c2)O[C@@H](c2ccccc2)n2c-3c(Cl)c3cc(-c4cnc([C@@H]5CCCN5C(=O)[C@@H](NC(=O)OC)C(C)C)[nH]4)ccc32)[nH]1)C(C)C
TEST VALUE: -1.40
